# procedure_text: Bioavailability is determined in monkey after oral administration at 5 mg/kg
# reported_conditions: cercopithecidae, in vivo
observation_type: bioavailability (%)

>>> df
                           structure_string  number
0  CCN1c2ncc(CCOc3ccc(C(=O)O)cc3C)cc2C(=O)N(C)c2cccnc21      43

---

# procedure_text: Steady state volume of distribution is determined in monkey after intravenous administration at 1 mg/kg
# Type: ADME, organism-based
# Parameters: dose 1 mg/kg, route intravenous
# reported_conditions: cercopithecidae, in vivo, read-out: Vss
observation_type: Vd (L/kg)

>>> print(df.to_string())
                           structure_string  number
0  CCN1c2ncc(CCOc3ccc(C(=O)O)cc3C)cc2C(=O)N(C)c2cccnc21       1

---

# procedure_text: in vitro
# reported_conditions: male, human, liver microsomes
Reported values of half-life at 10 µM for individual entries
observation_type: half-life at 10 µM (h)

>>> df
                           structure_string    observation_type  number
0  CCN1c2ncc(CCOc3ccc(CCC(=O)O)cc3C)cc2C(=O)N(C)c2cccnc21  half-life at 10 µM    3.43
1  CCN1c2ncc(CCOc3ccc(C(=O)O)cc3C)cc2C(=O)N(C)c2cccnc21  half-life at 10 µM    2.23
2  CCN1c2ncc(CCOc3ccc(CC(=O)O)cc3C)cc2C(=O)N(C)c2cccnc21  half-life at 10 µM     3.6
3  CCN1c2ncc(CCOc3ccc(C(=O)O)cc3)cc2C(=O)N(C)c2cccnc21  half-life at 10 µM    1.27

---

# procedure_text: Concentration maximum is determined in dog after oral administration 5 mg/kg
# reported_conditions: in vivo
observation_type: Cmax (µM)

In [3]: df
Out[3]:
                           structure_string  number
0  CCN1c2ncc(CCOc3ccc(C(=O)O)cc3C)cc2C(=O)N(C)c2cccnc21      16

---

# system_name: Human immunodeficiency virus type 1 reverse transcriptase (Human immunodeficiency virus 1, UniProt Q72547)
# procedure_text: Effective concentration towards HIV-1 wild type reverse transcriptase activity by 50% measured in cellular assay
observation_type: EC50

                           structure_string  observation_type  result
0  CCN1c2ncc(CCOc3ccc(C(=O)O)cc3C)cc2C(=O)N(C)c2ccc(OC)nc21              EC50  1.9 nM
1  CCN1c2ncc(CCOc3ccc(CCC(=O)O)cc3C)cc2C(=O)N(C)c2cccnc21              EC50  5.5 nM
2  CCN1c2ncc(CCOc3ccc(C(=O)O)cc3C)cc2C(=O)N(C)c2ccc(F)nc21              EC50  1.5 nM
3  CCc1cc(C(=O)O)ccc1OCCc1cnc2c(c1)C(=O)N(C)c1cccnc1N2CC              EC50  2.2 nM
4  CCN1c2ncc(CCOc3ccc(CC(=O)O)cc3C)cc2C(=O)N(C)c2cccnc21              EC50   12 nM
5  CCN1c2ncc(CCOc3ccc(C(=O)O)cc3C)cc2C(=O)N(C)c2ccc(C)nc21              EC50  1.3 nM
6  CCN1c2ncc(CCOc3ccc(C(=O)O)cc3)cc2C(=O)N(C)c2cccnc21              EC50  3.3 nM
7  CCN1c2ncc(CCOc3ccc(C(=O)O)cc3C)cc2C(=O)N(C)c2cccnc21              EC50  1.6 nM
8  CCN1c2ncc(CCOc3ccc(C(=O)O)cc3C)cc2C(=O)N(C)c2ccc(Cl)nc21              EC50  1.6 nM
9  CCN1c2ncc(CCOc3ccc(C(=O)O)cc3Br)cc2C(=O)N(C)c2cccnc21              EC50  3.2 nM

---

Target sequence: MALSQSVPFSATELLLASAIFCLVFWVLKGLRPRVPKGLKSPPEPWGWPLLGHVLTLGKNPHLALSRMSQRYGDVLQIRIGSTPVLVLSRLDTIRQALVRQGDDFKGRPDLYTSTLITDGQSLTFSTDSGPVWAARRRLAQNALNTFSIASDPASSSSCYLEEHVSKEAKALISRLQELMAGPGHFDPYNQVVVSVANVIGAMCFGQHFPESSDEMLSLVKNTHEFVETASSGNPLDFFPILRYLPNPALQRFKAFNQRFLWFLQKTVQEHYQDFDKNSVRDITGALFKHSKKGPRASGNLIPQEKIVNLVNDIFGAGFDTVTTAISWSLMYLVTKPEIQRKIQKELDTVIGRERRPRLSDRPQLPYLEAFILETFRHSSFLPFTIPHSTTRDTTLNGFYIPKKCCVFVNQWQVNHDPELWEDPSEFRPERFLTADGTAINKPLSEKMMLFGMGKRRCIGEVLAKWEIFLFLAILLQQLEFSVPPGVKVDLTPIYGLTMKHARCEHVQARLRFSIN
observation_type: IC50

                           structure_string   result
0  CCN1c2ncc(CCOc3ccc(C(=O)O)cc3C)cc2C(=O)N(C)c2cccnc21  > 30 µM

---

# procedure_text: Bioavailability is determined in rat after oral administration at 5 mg/kg
# reported_conditions: in vivo
observation_type: bioavailability (%)

In [3]: df
Out[3]:
                           structure_string  number
0  CCN1c2ncc(CCOc3ccc(C(=O)O)cc3C)cc2C(=O)N(C)c2cccnc21      46

---

# system_name: Cytochrome P450 3A4 (Homo sapiens)
pIC50: −log10 of the molar value.
observation_type: pIC50

In [3]: df
Out[3]:
                           structure_string  number
0  CCN1c2ncc(CCOc3ccc(C(=O)O)cc3C)cc2C(=O)N(C)c2cccnc21    4.62

---

# procedure_text: Steady state volume of distribution in rat after intravenous administration 1 mg/kg
# Format: ADME, organism-based
# Parameters: dose 1 mg/kg, route intravenous
# reported_conditions: in vivo, read-out: Vss
observation_type: Vd

>>> print(df.to_string())
                           structure_string    result
0  CCN1c2ncc(CCOc3ccc(C(=O)O)cc3C)cc2C(=O)N(C)c2cccnc21  4.6 L/kg

---

# procedure_text: Concentration maximum is determined in rat after oral administration at 5 mg/kg
# reported_conditions: in vivo
observation_type: Cmax (µM)

>>> df
                           structure_string  number
0  CCN1c2ncc(CCOc3ccc(C(=O)O)cc3C)cc2C(=O)N(C)c2cccnc21     6.5

---

# procedure_text: Bioavailability is determined in dog after oral administration 5 mg/kg
# reported_conditions: in vivo
observation_type: bioavailability (%)

                           structure_string  number
0  CCN1c2ncc(CCOc3ccc(C(=O)O)cc3C)cc2C(=O)N(C)c2cccnc21     115

---

# procedure_text: Clearance is determined in monkey after intravenous administration 1 mg/kg
# Format: ADME, organism-based
# Parameters: dose 1 mg/kg, route intravenous
# reported_conditions: cercopithecidae, in vivo
observation_type: clearance (mL/min/kg)

                           structure_string  endpoint_unit  number
0  CCN1c2ncc(CCOc3ccc(C(=O)O)cc3C)cc2C(=O)N(C)c2cccnc21      mL/min/kg      24

---

# system_name: Cytochrome P450 3A4 (Homo sapiens, UniProt P08684)
# Sequence (P08684 whole entry): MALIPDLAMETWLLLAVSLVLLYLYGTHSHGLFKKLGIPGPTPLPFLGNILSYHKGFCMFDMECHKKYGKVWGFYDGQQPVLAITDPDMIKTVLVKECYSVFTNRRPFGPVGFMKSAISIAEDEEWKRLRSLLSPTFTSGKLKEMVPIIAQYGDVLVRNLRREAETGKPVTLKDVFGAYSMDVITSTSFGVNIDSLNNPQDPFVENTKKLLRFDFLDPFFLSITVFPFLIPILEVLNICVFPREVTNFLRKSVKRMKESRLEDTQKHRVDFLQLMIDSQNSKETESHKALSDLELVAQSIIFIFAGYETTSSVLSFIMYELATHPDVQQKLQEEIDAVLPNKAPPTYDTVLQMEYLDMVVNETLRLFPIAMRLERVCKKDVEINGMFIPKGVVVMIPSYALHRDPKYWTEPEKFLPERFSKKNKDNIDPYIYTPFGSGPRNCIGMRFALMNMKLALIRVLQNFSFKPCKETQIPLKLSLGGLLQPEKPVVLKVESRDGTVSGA
# procedure_text: Inhibitory concentration (1.5 mM) against human CYP450 3A4 dissolved in acetonitrile/methanol using 7-Benzyloxy-quinoline (BQ) as fluorogenic substrate
pIC50: −log10 of the molar value.
observation_type: pIC50

In [3]: df
Out[3]:
                           structure_string  observation_type  result
0  CCN1c2ncc(CCOc3ccc(C(=O)O)cc3C)cc2C(=O)N(C)c2cccnc21             pIC50  < 4.52

---

# procedure_text: Maximum concentration is determined in monkey after oral administration at 5 mg/kg
# reported_conditions: cercopithecidae, in vivo
observation_type: Cmax

>>> df
                           structure_string   result
0  CCN1c2ncc(CCOc3ccc(C(=O)O)cc3C)cc2C(=O)N(C)c2cccnc21  1500 nM

---

# procedure_text: Half-life is determined in rat after intravenous administration at 1 mg/kg
# Format: ADME, organism-based
# Design: dose 1 mg/kg, route intravenous
# reported_conditions: in vivo
observation_type: half-life (h)

>>> print(df.to_string())
                           structure_string  observation_type  number
0  CCN1c2ncc(CCOc3ccc(C(=O)O)cc3C)cc2C(=O)N(C)c2cccnc21         half-life      11
